Provide the reported fraction unbound of each item.
# TEST NAME: Druggability screening: protein binding rate
# Format: in vitro ADME
# answer = number (no unit)

Q) Query fraction unbound for O=c1cc(-c2ccccc2)oc2c(CN3CCN(CCO)CC3)c(O)c(O)c(O)c12 [Hydroxyethylpiperazine Baicalein]
A) 0.04

Q) Query fraction unbound for O=c1cc(-c2ccccc2)oc2c(CN3CCC(O)CC3)c(O)c(O)c(O)c12 [Hydroxypiperidin Baicalein]
A) 0.09

Q) Query fraction unbound for CN1CCN(Cc2c(O)c(O)c(O)c3c(=O)cc(-c4ccccc4)oc23)CC1 [Methylpiperazine Baicalein]
A) 0.02

---

# TEST NAME: Distribution and plasma binding in rabbits (LC-DAD-MS)
# Format: in vivo
# CONDITION SET: rabbit, plasma, dose-independent manner, read-out: bound to plasma (converted)
REPORTED ENDPOINT: fraction unbound

Q) Query fraction unbound for CN1CCN(Cc2c(O)c(O)c(O)c3c(=O)cc(-c4ccccc4)oc23)CC1
A) 0.02

---

# ASSAYED TARGET: Cdk1/Cyclin B (Homo sapiens)
# Sequence (P06493 whole entry): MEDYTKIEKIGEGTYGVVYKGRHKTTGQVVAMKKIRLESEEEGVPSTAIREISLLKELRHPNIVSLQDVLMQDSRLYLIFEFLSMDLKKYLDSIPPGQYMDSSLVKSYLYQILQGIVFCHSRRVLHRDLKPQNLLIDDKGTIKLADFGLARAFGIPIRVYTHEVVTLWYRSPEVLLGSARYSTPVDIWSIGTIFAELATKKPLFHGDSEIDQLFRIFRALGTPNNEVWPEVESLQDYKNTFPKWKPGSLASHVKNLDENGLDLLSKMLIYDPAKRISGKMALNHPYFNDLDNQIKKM
# Sequence (P14635 whole entry partner): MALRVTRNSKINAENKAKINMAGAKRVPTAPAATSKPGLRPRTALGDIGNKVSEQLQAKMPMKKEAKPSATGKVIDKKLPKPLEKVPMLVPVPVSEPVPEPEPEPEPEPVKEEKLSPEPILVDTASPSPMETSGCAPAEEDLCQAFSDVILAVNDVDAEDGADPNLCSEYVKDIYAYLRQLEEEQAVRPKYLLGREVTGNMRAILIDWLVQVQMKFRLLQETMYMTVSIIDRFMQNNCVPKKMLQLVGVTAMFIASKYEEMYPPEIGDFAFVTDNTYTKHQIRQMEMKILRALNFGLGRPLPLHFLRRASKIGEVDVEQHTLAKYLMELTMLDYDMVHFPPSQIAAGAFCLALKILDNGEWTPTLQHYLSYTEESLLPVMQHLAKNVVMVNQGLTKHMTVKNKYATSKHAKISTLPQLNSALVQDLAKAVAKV
# TEST NAME: Cdk1/Cyclin B inhibitory activity, Z'-LYTE Kinase Assay
# CONDITION SET: ATP 10 μM; 8 concentrations of 0.01-25 μM
REPORTED ENDPOINT: IC50 (nM)
Field format: number, assumed nM, no unit text.

Q) Query IC50 for COc1c(O)c(CN2CCN(C)CC2)c2oc(-c3ccccc3)cc(=O)c2c1O
A) 880

Q) Query IC50 for O=C(O)[C@H]1O[C@@H](Oc2cc3oc(-c4ccccc4)cc(=O)c3c(O)c2O)[C@H](O)[C@@H](O)[C@@H]1O [Baicalin, reference compound]
A) 18100

Q) Query IC50 for COc1c(O)c(CN2CCN(CCO)CC2)c(O)c2c(=O)cc(-c3ccccc3)oc12 [Hydroxyethylpiperazine Wogonin]
A) 320

Q) Query IC50 for O=c1cc(-c2ccccc2)oc2c(CN3CCOCC3)c(O)c(O)c(O)c12
A) 300

Q) Query IC50 for COc1c(O)c(CN2CCCC2)c(O)c2c(=O)cc(-c3ccccc3)oc12
A) 17200

Q) Query IC50 for COc1c(O)c(CN(C)C)c(O)c2c(=O)cc(-c3ccccc3)oc12
A) 7630

Q) Query IC50 for O=c1cc(-c2ccccc2)oc2c(CN3CCC(O)C3)c(O)c(O)c(O)c12 (centres unmarked) [Hydroxylpyrrolidine Baicalein]
A) 290

Q) Query IC50 for O=c1cc(-c2ccccc2)oc2cc(O)c(O)c(O)c12 [Baicalein, reference compound]
A) 2080

Q) Query IC50 for COc1c(O)c(CN2CCSCC2)c(O)c2c(=O)cc(-c3ccccc3)oc12
A) 3170

Q) Query IC50 for CN1CCC(c2c(O)cc(O)c3c(=O)cc(-c4ccccc4Cl)oc23)C1CO (centres unmarked) [Example P276-00, reference compound]
A) 790

Q) Query IC50 for COc1c(O)cc(O)c2c(=O)cc(-c3ccccc3)oc12 [Wogonin, reference compound]
A) 3500

Q) Query IC50 for O=c1cc(-c2ccccc2)oc2c(CN3CCN(CCO)CC3)c(O)c(O)c(O)c12 [Hydroxyethylpiperazine Baicalein]
A) 280

Q) Query IC50 for COc1c(O)c(CN2CCCCC2)c(O)c2c(=O)cc(-c3ccccc3)oc12
A) 10500

Q) Query IC50 for O=c1cc(-c2ccccc2)oc2c(CN3CCC(O)CC3)c(O)c(O)c(O)c12 [Hydroxypiperidin Baicalein]
A) 300

Q) Query IC50 for COc1c(O)c(CN(CCO)CCO)c(O)c2c(=O)cc(-c3ccccc3)oc12
A) 310

---

# System: gastric (BGC-823)
# TEST NAME: Anticancer activity in vitro (Table 3), BGC-823
# Assay type: cell-based, human
# CONDITION SET: Homo sapiens, BGC-823, 48 h
REPORTED ENDPOINT: IC50 (µM)
Field format: number, assumed µM, no unit text.

Q) Query IC50 for O=c1cc(-c2ccccc2)oc2c(CN3CCC(O)CC3)c(O)c(O)c(O)c12 [Hydroxypiperidin Baicalein]
A) 18.6

Q) Query IC50 for CN1CCN(Cc2c(O)c(O)c(O)c3c(=O)cc(-c4ccccc4)oc23)CC1 [Methylpiperazine Baicalein]
A) 23.1

Q) Query IC50 for O=c1cc(-c2ccccc2)oc2c(CN3CCN(CCO)CC3)c(O)c(O)c(O)c12 [Hydroxyethylpiperazine Baicalein]
A) 19.3

Q) Query IC50 for COc1c(O)c(CN2CCN(C)CC2)c2oc(-c3ccccc3)cc(=O)c2c1O [6-OCH3— Methylpiperazine Baicalein]
A) 115

---

# TEST NAME: in vivo
Provide the reported half-life of each item.
Field format: number, assumed h, no unit text.

Q) Query half-life for O=c1cc(-c2ccccc2)oc2cc(O)c(O)c(O)c12 [Baicalein, reference compound]
A) 5.26

Q) Query half-life for COc1c(O)c(CN2CCN(CCO)CC2)c(O)c2c(=O)cc(-c3ccccc3)oc12 [Hydroxyethylpiperazine Wogonin]
A) 4

Q) Query half-life for O=c1cc(-c2ccccc2)oc2c(CN3CCC(O)CC3)c(O)c(O)c(O)c12 [Hydroxypiperidin Baicalein]
A) 4.23

Q) Query half-life for O=c1cc(-c2ccccc2)oc2c(CN3CCN(CCO)CC3)c(O)c(O)c(O)c12 [Hydroxyethylpiperazine Baicalein]
A) 3.75

---

# TEST NAME: Druggability screening: solubility in PBS (pH7.4)
# Format: physicochemical
# CONDITION SET: pH 7.4, aqueous buffer
Rule: solubility of 400 µM or more gives Y; anything lower gives N.

Q) Check if solubility >= 400 µM (inclusive). Item: O=c1cc(-c2ccccc2)oc2c(CN3CCC(O)CC3)c(O)c(O)c(O)c12 [Hydroxypiperidin Baicalein]
A) N

Q) Check if solubility >= 400 µM (inclusive). Item: COc1c(O)c(CN2CCN(CCO)CC2)c(O)c2c(=O)cc(-c3ccccc3)oc12 [Hydroxyethylpiperazine Wogonin]
A) Y

Q) Check if solubility >= 400 µM (inclusive). Item: O=c1cc(-c2ccccc2)oc2c(CN3CCNCC3)c(O)c(O)c(O)c12
A) N

Q) Check if solubility >= 400 µM (inclusive). Item: CN1CCN(Cc2c(O)c(O)c(O)c3c(=O)cc(-c4ccccc4)oc23)CC1
A) N

Q) Check if solubility >= 400 µM (inclusive). Item: O=c1cc(-c2ccccc2)oc2c(CN3CCN(CCO)CC3)c(O)c(O)c(O)c12 [Hydroxyethylpiperazine Baicalein]
A) Y

---

Provide the reported GI50 of each item.
Field format: number, assumed µM, no unit text.

Q) State recorded GI50 with MCF-7, entry CN1CC[C@H](c2c(O)cc(O)c3c(=O)cc(-c4ccccc4Cl)oc23)[C@H](O)C1 [Flavopiridol, reference compound] , no comment.
A) 0.048

Q) State recorded GI50 with MCF-7, entry CN(C)Cc1c(O)c(O)c(O)c2c(=O)cc(-c3ccccc3)oc12 , no comment.
A) 12.3

Q) State recorded GI50 with MCF-7, entry O=c1cc(-c2ccccc2)oc2c(CN3CCC(O)CC3)c(O)c(O)c(O)c12 [Hydroxypiperidin Baicalein] , no comment.
A) 10.2

Q) State recorded GI50 with MCF-7, entry O=c1cc(-c2ccccc2)oc2c(CN3CCN(CCO)CC3)c(O)c(O)c(O)c12 [Hydroxyethylpiperazine Baicalein] , no comment.
A) 13.1

Q) State recorded GI50 with MCF-7, entry O=c1cc(-c2ccccc2)oc2c(CN3CCCCC3)c(O)c(O)c(O)c12 , no comment.
A) 10.5

Q) State recorded GI50 with MCF-7, entry COc1c(O)c(CN2CCN(C)CC2)c2oc(-c3ccccc3)cc(=O)c2c1O , no comment.
A) 26.1

Q) State recorded GI50 with MCF-7, entry O=c1cc(-c2ccccc2)oc2c(CN3CCNCC3)c(O)c(O)c(O)c12 , no comment.
A) 13.8

Q) State recorded GI50 with MCF-7, entry O=c1cc(-c2ccccc2)oc2c(CN3CCCC3)c(O)c(O)c(O)c12 , no comment.
A) 10.3

Q) State recorded GI50 with MCF-7, entry O=c1cc(-c2ccccc2)oc2c(CN3CCSCC3)c(O)c(O)c(O)c12 , no comment.
A) 14.2

Q) State recorded GI50 with MCF-7, entry COc1c(O)c(CN2CCN(CCO)CC2)c(O)c2c(=O)cc(-c3ccccc3)oc12 [Hydroxyethylpiperazine Wogonin] , no comment.
A) 11.1

Q) State recorded GI50 with MCF-7, entry O=c1cc(-c2ccccc2)oc2c(CN3CCOCC3)c(O)c(O)c(O)c12 , no comment.
A) 10.1

Q) State recorded GI50 with MCF-7, entry CN1CCN(Cc2c(O)c(O)c(O)c3c(=O)cc(-c4ccccc4)oc23)CC1 , no comment.
A) 10.9

---

# Test system: Breast (MCF-7)
# TEST NAME: Anticancer activity in vitro (Table 3), MCF-7
# Assay type: cell-based, human
# CONDITION SET: Homo sapiens, MCF7, 48 h
REPORTED ENDPOINT: IC50
In your response, put the unit directly after the numeric value.

Q) Query IC50 for O=c1cc(-c2ccccc2)oc2c(CN3CCC(O)CC3)c(O)c(O)c(O)c12 [Hydroxypiperidin Baicalein]
A) 20.1 µM

Q) Query IC50 for CN1CCN(Cc2c(O)c(O)c(O)c3c(=O)cc(-c4ccccc4)oc23)CC1 [Methylpiperazine Baicalein]
A) 19.3 µM

Q) Query IC50 for O=c1cc(-c2ccccc2)oc2c(CN3CCN(CCO)CC3)c(O)c(O)c(O)c12 [Hydroxyethylpiperazine Baicalein]
A) 20.4 µM
